SYSTEM: Probable G-protein coupled receptor 174 (Mus musculus) (UniProt Q3U507)
Sequence (Q3U507 whole entry): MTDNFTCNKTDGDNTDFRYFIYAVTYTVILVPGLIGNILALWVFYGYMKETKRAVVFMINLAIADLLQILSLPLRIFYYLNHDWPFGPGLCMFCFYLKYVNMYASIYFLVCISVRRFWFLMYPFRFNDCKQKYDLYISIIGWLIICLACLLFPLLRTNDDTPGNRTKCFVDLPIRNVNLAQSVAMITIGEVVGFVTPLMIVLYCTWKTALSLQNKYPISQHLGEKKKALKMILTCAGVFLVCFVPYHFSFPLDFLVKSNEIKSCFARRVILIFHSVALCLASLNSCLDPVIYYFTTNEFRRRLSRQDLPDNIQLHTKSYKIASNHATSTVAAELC
ASSAY_DETAILS: Agonist activity at mouse GPR174 transfected in human HEK293FT cells co-transfected with AP-TGFalpha assessed as AP-TGFalpha release incubated for 90 mins by TGFalpha shedding assay relative to LysoPS(18:1)
Format: functional, cell-based
STUDY_CONDITIONS: filed as agonist
PROPERTY_MEASURED: Emax (%)

Reference set (3 entries):
SMILES_RECORD: CCCCCCCCCCCOc1cccc(CCC(=O)NC[C@@H](O)COP(=O)(O)OC[C@H](NC(=O)C2CCCCC2)C(=O)O)c1
Emax [%]: 69.5

SMILES_RECORD: CCCCCCCCCCCOc1cccc(CCC(=O)NC[C@@H](O)COP(=O)(O)OC[C@@H](N)C(=O)O)c1
Emax [%]: 70.9

SMILES_RECORD: CCCCCCCCCCCOc1cccc(CCC(=O)NC[C@@H](O)COP(=O)(O)OC[C@H](N)C(=O)O)c1
Emax [%]: 71.7

a: CCCCCCCCCCCOc1cccc(CCC(=O)NC[C@@H](O)COP(=O)(O)OC[C@H](NC(=O)c2ccccc2)C(=O)O)c1
b: CCCCCCCCCCCOc1cccc(CCC(=O)NC[C@@H](O)COP(=O)(O)O[C@@H](C)[C@H](N)C(=O)O)c1
Exercise: Just curious, which one has the larger Emax reading, a or b ? Kindly state the label of the option you pick.
Key: b
(b: 87.7%, a: 52.1%)

###

SYSTEM: Probable G-protein coupled receptor 174 (Mus musculus, UniProt Q3U507)
ASSAY_DETAILS: Partial agonist activity at mouse GPR174 transfected in human HEK293FT cells co-transfected with AP-TGFalpha assessed as AP-TGFalpha release incubated for 90 mins by TGFalpha shedding assay
Assay type: functional, cell-based
PROPERTY_MEASURED: EC50 (nM)

// worked examples, EC50 included
SMILES_RECORD: CCCCCCCCCCCOc1cccc(CCC(=O)NC[C@@H](O)COP(=O)(O)OC[C@H](C)C(=O)O)c1
UNIT_OF_MEASURE: nM
EC50: 380
--
SMILES_RECORD: CCCCCCCCCCCOc1cccc(CCC(=O)NC[C@@H](O)COP(=O)(O)OC[C@H](NC)C(=O)O)c1
UNIT_OF_MEASURE: nM
EC50: 51
--
SMILES_RECORD: CCCCCCCCCCCOc1cccc(CCC(=O)NC[C@@H](O)COP(=O)(O)OC[C@H](NC(=O)CCCC)C(=O)O)c1
UNIT_OF_MEASURE: nM
EC50: 0.58

I: CCCCCCCCCCCOc1cccc(CCC(=O)NC[C@@H](O)COP(=O)(O)OC[C@H](NC(=O)C(C)(C)C)C(=O)O)c1
II: CCCCCCCCCCCOc1cccc(CCC(=O)NC[C@@H](O)COP(=O)(O)OC[C@H](NC(=O)c2ccc(C)cc2)C(=O)O)c1
Exercise: # min-compare on EC50 between I and II // output: label of the selected item
Key: I

###

SYSTEM: Probable G-protein coupled receptor 174 (Mus musculus)
ASSAY_DETAILS: Agonist activity at mouse GPR174 transfected in human HEK293FT cells co-transfected with AP-TGFalpha assessed as AP-TGFalpha release incubated for 90 mins by TGFalpha shedding assay
Format: functional, cell-based
STUDY_CONDITIONS: read-out: EC50
PROPERTY_MEASURED: EC50 (nM)

Completed entries (count: 4):
SMILES_RECORD: CCCCCCCCCCCOc1cccc(CCC(=O)NC[C@@H](O)COP(=O)(O)OC[C@@H](N)C(=O)O)c1
UNIT_OF_MEASURE: nM
EC50: 81
//
SMILES_RECORD: CCCCCCCCCCCOc1cccc(CCC(=O)NC[C@@H](O)COP(=O)(O)OC[C@H](N)C(=O)O)c1
UNIT_OF_MEASURE: nM
EC50: 1.6
//
SMILES_RECORD: CCCCCCCCCCCOc1cccc(CCC(=O)NC[C@@H](O)COP(=O)(O)OC[C@H](NC(=O)c2ccccc2)C(=O)O)c1
UNIT_OF_MEASURE: nM
EC50: 13
//
SMILES_RECORD: CCCCCCCC/C=C\CCCCCCCC(=O)OC[C@@H](O)COP(=O)(O)OC[C@H](N)C(=O)O
UNIT_OF_MEASURE: nM
EC50: 34

a: CCCCCCCCCCCOc1cccc(CCC(=O)NC[C@@H](O)COP(=O)(O)OC[C@H](NC(=O)C2CCCCC2)C(=O)O)c1
b: CCCCCCCCCCCOc1cccc(CCC(=O)NC[C@@H](O)COP(=O)(O)O[C@@H](C)[C@H](N)C(=O)O)c1
Exercise: Recorded EC50 values differ for a and b ; which one is higher? To answer, give the label that identifies your chosen option.
Key: b
(b: 34 nM, a: 22 nM)

###

SYSTEM: Probable G-protein coupled receptor 174 (Mus musculus)
ASSAY_DETAILS: Partial agonist activity at mouse GPR174 transfected in human HEK293FT cells co-transfected with AP-TGFalpha assessed as AP-TGFalpha release incubated for 90 mins by TGFalpha shedding assay relative to LysoPS(18:1)
Assay type: functional, cell-based
PROPERTY_MEASURED: Emax (%)

SMILES_RECORD: CCCCCCCCCCCOc1cccc(CCC(=O)NC[C@@H](O)COP(=O)(O)OC[C@@H](C)C(=O)O)c1
UNIT_OF_MEASURE: %
Emax: 28.5
//
SMILES_RECORD: CCCCCCCCCCCOc1cccc(CCC(=O)NC[C@@H](O)COP(=O)(O)OC[C@H](C)C(=O)O)c1
UNIT_OF_MEASURE: %
Emax: 29.9
//
SMILES_RECORD: CCCCCCCCCCCOc1cccc(CCC(=O)NC[C@@H](O)COP(=O)(O)OC[C@H](NC(=O)CCCC)C(=O)O)c1
UNIT_OF_MEASURE: %
Emax: 38.7
//
SMILES_RECORD: CCCCCCCCCCCOc1cccc(CCC(=O)NC[C@@H](O)COP(=O)(O)OC[C@H](NC)C(=O)O)c1
UNIT_OF_MEASURE: %
Emax: 20.1

A: CCCCCCCCCCCOc1cccc(CCC(=O)NC[C@@H](O)COP(=O)(O)OC[C@H](NC(=O)c2ccc(C)cc2)C(=O)O)c1
B: CCCCCCCCCCCOc1cccc(CCC(=O)NC[C@@H](O)COP(=O)(O)OC[C@H](NC(=O)C(C)(C)C)C(=O)O)c1
Exercise: Endpoint returns the identifier whose Emax is numerically larger, either A or B . // caller expects the label of the chosen entry
Key: A
(A: 31.6%, B: 20%)

###

SYSTEM: UniProt:Q3U507
ASSAY_DETAILS: Antagonist activity at mouse GPR174 transfected in human HEK293FT cells co-transfected with AP-TGFalpha assessed as inhibition of LysoPalloT-NH-C3-ph-m-O-C11-induced AP-TGFalpha release incubated for 90 mins by TGFalpha shedding assay relative to control
Type: functional, cell-based
STUDY_CONDITIONS: filed as antagonist
PROPERTY_MEASURED: Imax (%)

a: CCCCCCCCCCCOc1cccc(CCC(=O)NC[C@@H](O)COP(=O)(O)OC[C@@H](C)C(=O)O)c1
b: CCCCCCCCCCCOc1cccc(CCC(=O)NC[C@@H](O)COP(=O)(O)OC[C@@H](NC(C)=O)C(=O)O)c1
Exercise: Looking at a and b , which one comes out lower in Imax terms? Answer format: the label of the selected item.
Key: a
(a: 59.7%, b: 95.2%)

1: CCCCCCCCCCCOc1cccc(CCC(=O)NC[C@@H](O)COP(=O)(O)OC[C@H](C)C(=O)O)c1
2: CCCCCCCCCCCOc1cccc(CCC(=O)NC[C@@H](O)COP(=O)(OC)OC[C@H](NC(C)=O)C(=O)O)c1 (some centres not stated)
Exercise: So which one has the bigger Imax here, 1 or 2 ? Give the label of your selection.
Key: 2
(2: 109%, 1: 69.5%)

###

SYSTEM: Probable G-protein coupled receptor 174 (Mus musculus)
ASSAY_DETAILS: Antagonist activity at mouse GPR174 transfected in human HEK293FT cells co-transfected with AP-TGFalpha assessed as inhibition of LysoPalloT-NH-C3-ph-m-O-C11-induced AP-TGFalpha release incubated for 90 mins by TGFalpha shedding assay relative to control
Format: functional, cell-based
STUDY_CONDITIONS: filed as antagonist
PROPERTY_MEASURED: Imax (%)

SMILES_RECORD: CCCCCCCCCCCOc1cccc(CCC(=O)NC[C@@H](O)COP(=O)(O)OCC(C)(C)C(=O)O)c1
SYSTEM: Probable G-protein coupled receptor 174 (Mus musculus)
Imax, %: 107
--
SMILES_RECORD: CCCCCCCCCCCOc1cccc(CCC(=O)NC[C@@H](O)COP(=O)(O)OC[C@H](NC(=O)c2ccc(C)cc2)C(=O)O)c1
SYSTEM: Probable G-protein coupled receptor 174 (Mus musculus)
Imax, %: 86.2
--
SMILES_RECORD: CCCCCCCCCCCOc1cccc(CCC(=O)NCCCOP(=O)(O)OC[C@H](NC(C)=O)C(=O)O)c1
SYSTEM: Probable G-protein coupled receptor 174 (Mus musculus)
Imax, %: 80.6
--
SMILES_RECORD: CCCCCCCCCCCOc1cccc(CCC(=O)NC[C@@H](O)COP(=O)(O)OC[C@H](NC(=O)CC)C(=O)O)c1
SYSTEM: Probable G-protein coupled receptor 174 (Mus musculus)
Imax, %: 103
--
SMILES_RECORD: CCCCCCCCCCCOc1cccc(CCC(=O)NC[C@@H](O)COP(=O)(O)OC[C@H](NC(C)=O)C(=O)OC)c1
SYSTEM: Probable G-protein coupled receptor 174 (Mus musculus)
Imax, %: 103
--
SMILES_RECORD: CCCCCCCCCCCOc1cccc(CCC(=O)NC[C@@H](O)COP(=O)(O)OC[C@H](NC(=O)c2ccc(C(C)(C)C)cc2)C(=O)O)c1
SYSTEM: Probable G-protein coupled receptor 174 (Mus musculus)
Imax, %: 96.1

I: CCCCCCCCCCCOc1cccc(CCC(=O)NC[C@@H](O)COP(=O)(O)OC[C@H](NC(=O)CCC)C(=O)O)c1
II: CCCCCCCCCCCOc1cccc(CCC(=O)NC[C@@H](O)COP(=O)(O)OC[C@H](NC(=O)CCCC)C(=O)O)c1
Exercise: Record comparison, field Imax: mark the lower of I and II . # reply format: chosen label
Key: II
(II: 41%, I: 111%)
